tested-system: human orexin-2 receptor (Homo sapiens, UniProt O43614)
Sequence (O43614 1-444): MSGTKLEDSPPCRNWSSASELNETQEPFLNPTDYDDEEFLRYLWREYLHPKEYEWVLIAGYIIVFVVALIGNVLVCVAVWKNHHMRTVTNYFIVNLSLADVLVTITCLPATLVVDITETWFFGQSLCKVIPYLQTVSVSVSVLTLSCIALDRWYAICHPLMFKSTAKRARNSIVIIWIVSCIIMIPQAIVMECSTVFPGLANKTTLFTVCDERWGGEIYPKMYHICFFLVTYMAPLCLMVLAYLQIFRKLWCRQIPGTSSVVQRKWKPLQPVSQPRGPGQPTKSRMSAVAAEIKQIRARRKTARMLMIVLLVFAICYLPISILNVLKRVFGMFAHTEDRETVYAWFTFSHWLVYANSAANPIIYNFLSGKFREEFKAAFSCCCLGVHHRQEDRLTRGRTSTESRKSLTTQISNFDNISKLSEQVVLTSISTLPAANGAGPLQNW
assay-notes: FLIPR intracellular calcium assay, orexin receptor antagonistic activity (OX2)
test-parameters: CHO cells expressing human orexin-2 receptor; agonist 3 nM orexin-A; normalized to on-plate reference; * geomean n = 5, *2 geomean n = 2
pIC50: −log10 of the molar value.
pIC50 of 6 or higher: YES. Under 6: NO.

1) COc1cccc(OC)c1C1OCC(=O)N1Cc1ccccc1OC(F)(F)F (centres unmarked) [Example 33]	YES
2) CCOc1ccccc1C1OCC(=O)N1Cc1cccc(C(F)(F)F)c1C (centres unmarked) [Example 11]	YES
3) CCOc1ccccc1C1OCC(=O)N1Cc1cc(C(F)(F)F)ccc1Cl (centres unmarked) [Example 12]	YES
4) COc1cccc(OC)c1C1OC(C)(C)C(=O)N1Cc1ccc2c(c1)OCO2 (centres unmarked) [Example 71]	NO
5) COc1cccc(OC)c1C1OC(C)(C)C(=O)N1Cc1nc2ccccc2o1 (centres unmarked) [Example 68]	YES

----------
tested-system: human orexin-2 receptor (Homo sapiens, UniProt O43614)
Sequence (O43614 1-444): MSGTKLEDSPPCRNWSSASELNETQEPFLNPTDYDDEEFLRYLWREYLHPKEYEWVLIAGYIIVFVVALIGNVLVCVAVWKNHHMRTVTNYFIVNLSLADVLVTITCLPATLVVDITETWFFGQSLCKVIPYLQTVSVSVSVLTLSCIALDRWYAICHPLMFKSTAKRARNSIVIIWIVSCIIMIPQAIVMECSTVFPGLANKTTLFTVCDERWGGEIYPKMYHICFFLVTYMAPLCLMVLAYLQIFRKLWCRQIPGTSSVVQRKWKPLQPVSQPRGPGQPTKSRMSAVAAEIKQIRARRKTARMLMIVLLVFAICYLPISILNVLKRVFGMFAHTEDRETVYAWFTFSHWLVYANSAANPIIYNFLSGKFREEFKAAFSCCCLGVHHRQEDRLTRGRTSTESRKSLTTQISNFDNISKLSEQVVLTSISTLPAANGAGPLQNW
assay-notes: FLIPR intracellular calcium assay, orexin receptor antagonistic activity (OX2)
test-parameters: CHO cells expressing human orexin-2 receptor; agonist 3 nM orexin-A; normalized to on-plate reference; * geomean n = 5, *2 geomean n = 2
measured-property: IC50 (nM)

1) CCOc1ccccc1C1OCC(=O)N1Cc1ccc(F)c(F)c1 (stereo not shown) [Example 26]	652
2) COc1cccc(OC)c1C1OC(C)(C)C(=O)N1Cc1ccc(OC(C)C)cc1 (stereo not shown) [Example 76]	193
3) COc1cccc(OC)c1C1OCC(=O)N1Cc1ccc(Oc2ccccc2)cc1 (stereo not shown) [Example 47]	68
4) CCOc1ccccc1C1OCC(=O)N1Cc1cc(Cl)ccc1Cl (stereo not shown) [Example 46]	1520
5) COc1cccc(OC)c1C1O[C@H](C)C(=O)N1Cc1ccc(OCC2CC2)cc1 (stereo partly shown) [Example 75]	123
6) COc1cccc(OC)c1C1OCC(=O)N1Cc1cc(C(F)(F)F)cc(Cl)c1F (stereo not shown) [Example 37]	477
7) CCOc1ccccc1C1OCC(=O)N1Cc1ccc(OC(F)(F)F)cc1 (stereo not shown) [Example 6]	55
8) COc1cccc(OC)c1C1O[C@H](C)C(=O)N1Cc1ccc(OC(F)F)cc1 (stereo partly shown) [Example 52]	41
9) COc1cccc(OC)c1C1O[C@@H](C)C(=O)N1Cc1ccc2ccccc2c1 (stereo partly shown) [Example 66]	266
10) COc1cccc(OC)c1C1OC(C)(C)C(=O)N1Cc1ccc(Oc2cnccn2)cc1 (stereo not shown) [Example 92]	3060
11) CCOc1ccccc1C1OCC(=O)N1Cc1ccc(C)c(Cl)c1 (stereo not shown) [Example 31]	634
12) COc1cccc(OC)c1C1OC(C)(C)C(=O)N1Cc1ccc(Oc2ccccc2)cc1 (stereo not shown) [Example 50]	58
13) COc1cccc(OC)c1C1OCC(=O)N1Cc1ccc(F)c(Cl)c1 (stereo not shown) [Example 36]	632
14) COc1cccc(OC)c1C1OCC(=O)N1Cc1ccc(OC(C)C)cc1 (stereo not shown) [Example 60]	159
15) COc1cccc(OC)c1C1OC(C)(C)C(=O)N1Cc1ccc(OCC2CC2)cc1 (stereo not shown) [Example 78]	620
16) CCOc1cccc(OC)c1C1OC(C)(C)C(=O)N1Cc1ccc(Oc2ccccc2)cc1 (stereo not shown) [Example 97]	62
17) COc1cccc(OC)c1C1OCC(=O)N1Cc1ccc(Cl)cc1Cl (stereo not shown) [Example 42]	376
18) CCOc1ccccc1C1OCC(=O)N1Cc1cccc(OC)c1 (stereo not shown) [Example 4]	705
19) CCOc1ccccc1C1OCC(=O)N1Cc1ccccc1Cl (stereo not shown) [Example 45]	870
